biological target: EncM (Streptomyces maritimus, UniProt Q9KHK2); experiment: stopped-flow flavin reduction at […] nm, hyperbolic fit of kobs; details: read-out: apparent Kd; EncM-Flox (oxidized, inactive flavin form), anaerobic, 4 °C, 0.1 M Tris-H2SO4 pH 7.5, 10% glycerol
pKd: −log10 of the molar value.
Measured pKd values are reported for all entries that follow.
measurementType: pKd

[[record]]
smiles = "NC(=O)C1=CN([C@@H]2O[C@H](COP(=O)(O)OP(=O)(O)OC[C@H]3O[C@@H](n4cnc5c(N)ncnc54)[C@H](OP(=O)(O)O)[C@@H]3O)[C@@H](O)[C@H]2O)C=CC1"
targetsystem = "EncM (Streptomyces maritimus, UniProt Q9KHK2)"
quantitativereadout = 3.59

[[record]]
smiles = "NC(=O)C1=CN([C@@H]2O[C@H](COP(=O)(O)OP(=O)(O)OC[C@H]3O[C@@H](n4cnc5c(N)ncnc54)[C@H](O)[C@@H]3O)[C@@H](O)[C@H]2O)C=CC1"
targetsystem = "EncM (Streptomyces maritimus, UniProt Q9KHK2)"
quantitativereadout = 2.03

